Tested on: UEA-1 binding sites on Caco-2 cell membrane preparations
Test protocol: Two tier competition assay: compound incubated alone with membranes, biotinylated UEA-1 added in next step
Design: species or system human
Reported conditions: Table 8, galloyl constructs
Non-standard residues stand in square brackets, D forms with d. Residues, ends and D or L forms follow the SMILES beside them. *: point of attachment. Galloyl = O=C(c1cc(O)c(O)c(O)c1)*; Dab = NCC[CH](N)C(=O)O
Recorded endpoint: IC 50 (ug/ml) 2nd tier
Your answer should be a number followed by the unit of measure.

Below are worked cases with known answers.
# Compound, IC 50 (ug/ml) 2nd tier
records = [
    ("CC(=O)NC(CCNC(=O)c1cc(O)c(O)c(O)c1)C(=O)NC(CCNC(=O)c1cc(O)c(O)c(O)c1)C(=O)NC(CCNC(=O)c1cc(O)c(O)c(O)c1)C(N)=O (stereo not shown) [MSI 34 #14]", "1 µg/mL"),
    ("CC(=O)NC(CCNC(=O)c1cc(O)c(O)c(O)c1)C(=O)NC(CCNC(=O)c1cc(O)c(O)c(O)c1)C(=O)NC(CCNC(=O)c1cc(O)c(O)c(O)c1)C(=O)NC(CCNC(=O)c1cc(O)c(O)c(O)c1)C(N)=O (stereo not shown) [MSI 34 #22] (Ac-[Dab](Galloyl)[Dab](Galloyl)[Dab](Galloyl)[Dab](Galloyl)-NH2; configuration not given here)", "1 µg/mL"),
    ("CC(=O)NC(CCCCNC(=O)c1cc(O)c(O)c(O)c1)C(N)=O (stereo not shown) [Cpd 14]", "211 µg/mL"),
]

# input Please give the documented IC 50 (ug/ml) 2nd tier of CC(=O)NC(CCCCNC(=O)c1cc(O)c(O)c(O)c1)C(=O)NC(CCCCNC(=O)c1cc(O)c(O)c(O)c1)C(=O)NC(CCCCNC(=O)c1cc(O)c(O)c(O)c1)C(N)=O (stereo not shown) [Cpd 54]
# output 2 µg/mL

* * *

Tested on: UEA-1 binding sites on Caco-2 cell membrane preparations
Test protocol: Single tier competition assay: inhibition of biotinylated UEA-1 binding, compound and biotinylated UEA-1 incubated together
Design: species or system human
Reported conditions: Single Tier Assay, 62.5 μg/ml; library MSI 26
Where a name gives a salt, the structure may show the parent alone.
Recorded endpoint: Avg % Inhibtion
Your answer should be a number followed by the unit of measure.

Below are worked cases with known answers.
# Compound, Study target, Readout value
rows = [
    ("NC(=O)c1cc(O)cc(O)c1 [3,5-dihydroxybenzamide, reference compound]", "UEA-1 binding sites on Caco-2 cell membrane preparations", "−1%"),
    ("O=C(O)c1cc(O)cc(O)c1 [3,5-dihydroxybenzoic Acid, reference compound]", "UEA-1 binding sites on Caco-2 cell membrane preparations", "0%"),
    ("COc1cc(C(=O)OCCCN2CCCN(CCCOC(=O)c3cc(OC)c(OC)c(OC)c3)CC2)cc(OC)c1OC [Dilazep dihydrochloride, reference compound]", "UEA-1 binding sites on Caco-2 cell membrane preparations", "14.7%"),
]

# input Please give the documented Avg % Inhibtion of NC(=O)c1cc(O)c(O)c(O)c1 [3,4,5-trihydroxybenzamide, reference compound]
# output 41.7%

* * *

Tested on: UEA-1 binding sites on Caco-2 cell membrane preparations
Test protocol: Single tier competition assay: inhibition of biotinylated UEA-1 binding, compound and biotinylated UEA-1 incubated together
Set-up: species or system human
Reported conditions: library MSI 27; read-out: Single Tier Assay IC50
Procedure: The epithelial cell binding ability of compounds and mixtures obtained from synthetic combinatorial libraries was determined by competition assays. […] • 1. […] The protein concentration was determined using e.g. a Bio-Rad protein assay. • 9. […] The plates were flicked out, patted dry and biotinylated UEA-1 was detected with commercial Streptavidin conjugated to horseradish peroxidase (HRP) (CalBiochem). […]
Recorded endpoint: IC50 (µM)
Note: unit µM is implicit; provide only the numeric part.

Below are worked cases with known answers.
# Compound, Study target, IC50, µM
records = [
    ("CC(=O)NC(CCCCNC(=O)c1cc(O)cc(O)c1)C(N)=O (stereo not drawn)", "UEA-1 binding sites on Caco-2 cell membrane preparations", 773),
    ("COc1ccc(C(=O)NCCCC[C@@H](NC(=O)[C@@H](CCCCNC(=O)c2ccc(OC)c(OC)c2)NC(=O)[C@@H](CCCCNC(=O)c2ccc(OC)c(OC)c2)NC(=O)c2ccc(OC)c(OC)c2)C(N)=O)cc1OC", "UEA-1 binding sites on Caco-2 cell membrane preparations", 101),
    ("O=C(O)c1cc(O)cc(O)c1 [compound 8, 3,5-dihydroxybenzoic acid]", "UEA-1 binding sites on Caco-2 cell membrane preparations", 299),
    ("CCOc1cc(C(=O)NCCCCC(NC(=O)C(CCCCNC(=O)c2cc(OCC)c(OCC)c(OCC)c2)NC(=O)C(CCCCNC(=O)c2cc(OCC)c(OCC)c(OCC)c2)NC(C)=O)C(N)=O)cc(OCC)c1OCC (stereo not drawn)", "UEA-1 binding sites on Caco-2 cell membrane preparations", 217),
    ("COc1cc(C(=O)NCCCCC(NC(=O)c2cc(OC)c(O)c(OC)c2)C(=O)NCCCCC(NC(=O)C(CCCCNC(=O)c2cc(OC)c(O)c(OC)c2)NC(=O)c2cc(OC)c(O)c(OC)c2)C(N)=O)cc(OC)c1O (stereo not drawn)", "UEA-1 binding sites on Caco-2 cell membrane preparations", 130),
]

// switching to the query compound
# input Please give the documented IC50 of COc1cc(C(=O)NCCCCC(NC(=O)C(CCCCNC(=O)c2cc(OC)c(OC)c(OC)c2)NC(=O)c2cc(OC)c(OC)c(OC)c2)C(N)=O)cc(OC)c1OC (stereo not drawn)
# output 292

* * *

Parameter Av % Inhibition: see the listing below.
Tested on: UEA-1 binding sites on Caco-2 cell membrane preparations
Test protocol: Competition assay of biotinylated UEA-1 binding, tier (single/two) not given
Design: species or system human
Reported conditions: 50 μg/ml; second pair of columns, tier not printed; library TPI 1066
Note: unit % is implicit; provide only the numeric part.

# Molecule, Av % Inhibition [%]
measured = [
    ("O=C(O)c1ccc(O)cc1 [compound 23, 4-Hydroxybenzoic acid]", 39),
]

# input Please give the documented Av % Inhibition of O=C(O)c1cc(O)cc(O)c1 [compound 8, 3,5-dihydroxybenzoic acid]
# output 0

# input Please give the documented Av % Inhibition of `COc1cc(C(=O)O)cc(OC)c1OC`
# output 52

# input Please give the documented Av % Inhibition of `CCOC(=O)c1c(OC)cc(C(=O)O)cc1OC`
# output 39

* * *

System: UEA-1 binding sites on Caco-2 cell membrane preparations
Test protocol: Single tier competition assay: inhibition of biotinylated UEA-1 binding, compound and biotinylated UEA-1 incubated together
Design: species or system human
Reported conditions: library MSI 27; read-out: Single Tier Assay IC50
Recorded endpoint: IC50 (µM)
Note: unit µM is implicit; provide only the numeric part.

Below are worked cases with known answers.
# Molecule, IC50, µM
data = [
    ("CCOc1cc(C(=O)NCCCC[C@@H](NC(=O)[C@@H](CCCCNC(=O)c2cc(OCC)c(OCC)c(OCC)c2)NC(=O)[C@@H](CCCCNC(=O)c2cc(OCC)c(OCC)c(OCC)c2)NC(=O)c2cc(OCC)c(OCC)c(OCC)c2)C(N)=O)cc(OCC)c1OCC", 186),
    ("COc1cc(C(=O)O)cc(OC)c1O", 307),
    ("CCOc1cc(C(=O)NCCCCC(NC(=O)C(CCCCNC(=O)c2cc(OCC)c(OCC)c(OCC)c2)NC(C)=O)C(N)=O)cc(OCC)c1OCC (stereo not drawn)", 317),
    ("NC(=O)C(CCCCNC(=O)c1cc(O)c(O)c(O)c1)NC(=O)C(CCCCNC(=O)c1cc(O)c(O)c(O)c1)NC(=O)c1cc(O)c(O)c(O)c1 (stereo not drawn)", 35.5),
    ("NC(=O)C(CCCCNC(=O)C(CCCCNC(=O)c1cc(O)cc(O)c1)NC(=O)c1cc(O)cc(O)c1)NC(=O)C(CCCCNC(=O)c1cc(O)cc(O)c1)NC(=O)c1cc(O)cc(O)c1 (stereo not drawn)", 265),
]

// switching to the query molecule
# input Please give the documented IC50 of CC(=O)NC(CCCCNC(=O)c1ccc(O)cc1)C(=O)NC(CCCCNC(=O)c1ccc(O)cc1)C(=O)NC(CCCCNC(=O)c1ccc(O)cc1)C(N)=O (stereo not drawn)
# output 311

* * *

Tested on: UEA-1 binding sites on Caco-2 cell membrane preparations
Test protocol: Two tier competition assay: compound incubated alone with membranes, biotinylated UEA-1 added in next step
Parameters: species or system human
Reported conditions: Table 8, galloyl constructs
Experimental: The epithelial cell binding ability of compounds and mixtures obtained from synthetic combinatorial libraries was determined by competition assays. […] • 1. […] The protein concentration was determined using e.g. a Bio-Rad protein assay. • 9. […] The plates were flicked out, patted dry and biotinylated UEA-1 was detected with commercial Streptavidin conjugated to horseradish peroxidase (HRP) (CalBiochem). […]
Parameter IC 50 (ug/ml) 2nd tier: see the listing below.
Note: unit µg/mL is implicit; provide only the numeric part.

Below are worked cases with known answers.
# Compound, Units text, IC 50 (ug/ml) 2nd tier
records = [
    ("NC(=O)C(Cc1ccc(NC(=O)C(Cc2ccc(NC(=O)c3cc(O)c(O)c(O)c3)cc2)NC(=O)c2cc(O)c(O)c(O)c2)cc1)NC(=O)C(Cc1ccc(NC(=O)c2cc(O)c(O)c(O)c2)cc1)NC(=O)c1cc(O)c(O)c(O)c1 (stereo not shown) [MSI 34 #8]", "µg/mL", 3),
    ("NC(=O)[C@H](CNC(=O)c1cc(O)c(O)c(O)c1)NC(=O)c1cc(O)c(O)c(O)c1 [MSI 34 #1]", "µg/mL", 0.8),
    ("NC(=O)C(CCCNC(=O)c1cc(O)c(O)c(O)c1)NC(=O)C(CCCNC(=O)c1cc(O)c(O)c(O)c1)NC(=O)c1cc(O)c(O)c(O)c1 (stereo not shown) [MSI 34 #11]", "µg/mL", 0.8),
    ("NC(=O)C(CCNC(=O)c1cc(O)c(O)c(O)c1)NC(=O)C(CCNC(=O)c1cc(O)c(O)c(O)c1)NC(=O)c1cc(O)c(O)c(O)c1 (stereo not shown) [MSI 34 #10]", "µg/mL", 0.7),
    ("NC(=O)C(CNC(=O)c1cc(O)c(O)c(O)c1)NC(=O)C(CNC(=O)c1cc(O)c(O)c(O)c1)NC(=O)C(CNC(=O)c1cc(O)c(O)c(O)c1)NC(=O)c1cc(O)c(O)c(O)c1 (stereo not shown) [MSI 34 #17]", "µg/mL", 0.7),
]

# input Please look at NC(=O)C(CCCNC(=O)c1cc(O)c(O)c(O)c1)NC(=O)c1cc(O)c(O)c(O)c1 (stereo not shown) [MSI 34 #3] and tell me its recorded IC 50 (ug/ml) 2nd tier on UEA-1 binding sites on Caco-2 cell membrane preparations.
# output 0.7

# input Please look at NC(=O)C(CCCCNC(=O)C(CCCCNC(=O)c1cc(O)c(O)c(O)c1)NC(=O)c1cc(O)c(O)c(O)c1)NC(=O)C(CCCCNC(=O)c1cc(O)c(O)c(O)c1)NC(=O)c1cc(O)c(O)c(O)c1 (stereo not shown) [Cpd 22] and tell me its recorded IC 50 (ug/ml) 2nd tier on UEA-1 binding sites on Caco-2 cell membrane preparations.
# output 1

# input Please look at NC(=O)C(Cc1ccc(NC(=O)c2cc(O)c(O)c(O)c2)cc1)NC(=O)C(Cc1ccc(NC(=O)c2cc(O)c(O)c(O)c2)cc1)NC(=O)c1cc(O)c(O)c(O)c1 (stereo not shown) [MSI 34 #12] and tell me its recorded IC 50 (ug/ml) 2nd tier on UEA-1 binding sites on Caco-2 cell membrane preparations.
# output 4
